Cited source for all entries: patent US11535607B2

PROCEDURE DETAILS: Mouse pharmacokinetic study (i.v. and i.p.)
Assay type: in vivo
ASSAY CONDITIONS: mouse, in vivo; IP 5 mg/kg, male Balb/c nude mice
PROPERTY MEASURED: half-life (h)
Lab book: enter the figure in h, no units written.

Enquiry: Fill in: half-life of CC1(C)c2cccc(C(=O)NO)c2CN1c1cnc(C(F)(F)F)cn1 is ___
Return: 10.2

---

PROCEDURE DETAILS: Kinetic solubility at pH 7.4
Format: physicochemical
ASSAY CONDITIONS: aqueous buffer, kinetic from dmso stock
PROPERTY MEASURED: solubility

Worked cases, answers included:
- COMPOUND: "CC1(C)c2cccc(C(N)=O)c2CN1c1cnc(C(F)(F)F)cn1 [Compound 50-1]"
  PROPERTY MEASURED: "solubility"
  TEST RESULT: "≤ 30 µM"
- COMPOUND: "CC1(C)c2cccc(C(=O)NO)c2CN1c1ncc(C(F)(F)F)cn1 [Compound 22-6]"
  PROPERTY MEASURED: "solubility"
  TEST RESULT: "30 to 55 µM"
- COMPOUND: "CC1(C)c2cccc(C(=O)NO)c2CN1c1ccc(C(F)(F)F)nc1 [Compound 22-3]"
  PROPERTY MEASURED: "solubility"
  TEST RESULT: "30 to 55 µM"

Enquiry: Fill in: solubility of CC1(C)c2cccc(C(=O)NO)c2CN1c1nc2cc(C(F)(F)F)ccc2o1 [Compound 18-1] is ___
Return: ≤ 30 µM

---

IC50, HDAC5 (Homo sapiens (Human)), per-entry values.

- COMPOUND STRUCTURE STRING: "CC1(C)c2cccc(C(=O)NO)c2CN1c1cnc(C(F)(F)F)cn1"
  TEST RESULT: "> 1 µM"

Pending molecule:
Enquiry: Quick check: IC50 on HDAC5 (Homo sapiens (Human)), item CC1(C)c2cccc(C(N)=O)c2CN1c1cnc(C(F)(F)F)cn1 ?
Return: > 1 µM

---

SYSTEM: full-length human HDAC11 (Homo sapiens (Human), UniProt Q96DB2)
PROCEDURE DETAILS: Probe binding HDAC11 time resolved fluorescence (TRF) assay
ASSAY CONDITIONS: Table 2, read-out: HDAC11 IC50 Range
Experimental: The probe binding HDAC11 assay was performed using a time resolved fluorescence (TRF) assay format. Recombinant N-terminal GST tag full-length human HD AC 11 was expressed and purified from baculovirus in Sf9 insect cells (SignalChem, #H93-30G-1000). […] Data from HD AC 11 Assays were reported as percent inhibition (inh) compared with control wells based on the following equation: % inh=1−((FLU−AveLow)/(AveHigh−AveLow)) where FLU=measured time resolved fluorescence. […]
# Lookup of reported IC50 keyed by entry

- MOLECULE: "O=C(NO)c1cccc2[nH]c(-c3cnc(C(F)(F)F)cn3)cc12 [Compound 37-4]"
  SYSTEM: "full-length human HDAC11 (Homo sapiens (Human), UniProt Q96DB2)"
  IC50: "< 500 nM"
- MOLECULE: "CC1(C)c2cccc(C(=O)NO)c2CN1C(=O)Nc1ccc(C(F)(F)F)cn1 [Compound 30-2]"
  SYSTEM: "full-length human HDAC11 (Homo sapiens (Human), UniProt Q96DB2)"
  IC50: "> 1000 nM"
- MOLECULE: "O=C(NO)c1cccc2c1CN(c1ccccc1)C2 [Compound 42-1]"
  SYSTEM: "full-length human HDAC11 (Homo sapiens (Human), UniProt Q96DB2)"
  IC50: "> 1000 nM"

Enquiry: Fill in: IC50 of CC1(C)c2cccc(C(=O)NO)c2N[C@H]1c1ccc(C(F)(F)F)cn1 [Compound 40-1] is ___
Return: > 1000 nM

---

PROCEDURE DETAILS: In vitro intrinsic clearance after incubation with mouse liver microsomes
Format: in vitro ADME
ASSAY CONDITIONS: Table 6
PROPERTY MEASURED: microsomal CLint

Worked cases, answers included:
- COMPOUND: "CC1(C)c2cccc(C(=O)NO)c2CN1c1ccc(C(F)(F)F)nc1 [Compound 22-3]"
  PROPERTY MEASURED: "microsomal CLint"
  TEST RESULT: "< 50 µL/min/mg"
- COMPOUND: "CC1(C)c2cccc(C(=O)NO)c2CN1c1ncc(C(F)(F)F)cn1 [Compound 22-6]"
  PROPERTY MEASURED: "microsomal CLint"
  TEST RESULT: "< 50 µL/min/mg"

Enquiry: Fill in: microsomal CLint of CC1(C)c2cccc(C(=O)NO)c2CN1c1nc2ncccc2o1 [Compound 18-2] is ___
Return: < 50 µL/min/mg

Enquiry: Same read-out for CC1(C)c2cccc(C(N)=O)c2CN1c1cnc(C(F)(F)F)cn1 [Compound 50-1] ?
Return: < 50 µL/min/mg

Enquiry: Same read-out for CC1(C)c2cccc(C(=O)NO)c2CN1c1cnc(C(F)(F)F)nc1 [Compound 22-7] ?
Return: < 50 µL/min/mg

Enquiry: Same read-out for CC1(C)c2cccc(C(=O)NO)c2CN1c1cnc(C(F)(F)F)cn1 [Compound 22-8] ?
Return: < 50 µL/min/mg

Enquiry: Same read-out for CC1(C)c2cccc(C(=O)NO)c2CN1c1nc2cc(C(F)(F)F)ccc2o1 [Compound 18-1] ?
Return: < 50 µL/min/mg

Enquiry: Same read-out for CC1(C)c2cccc(C(=O)NO)c2CN1c1ccc(C(F)(F)F)cn1 [Compound 22-2] ?
Return: < 50 µL/min/mg

Enquiry: Same read-out for CC1(C)c2cccc(C(=O)NO)c2CN1c1nc2ccc(C(F)(F)F)cc2[nH]1 [Compound 17-1] ?
Return: < 50 µL/min/mg

---

# Lookup of reported pIC50 keyed by entry
SYSTEM: UniProtKB Q96DB2
PROCEDURE DETAILS: Probe binding HDAC11 time resolved fluorescence (TRF) assay
ASSAY CONDITIONS: Table 2, read-out: HDAC11 IC50 Range
pIC50: −log10 of the molar value.

Worked cases, answers included:
- COMPOUND: "O=C(NO)c1cccc2c1CN(c1nc3c([nH]1)CC(C(F)(F)F)CC3)C2 (centres unmarked) [Compound 1-1]"
  TEST RESULT: "> 6.30"
- COMPOUND: "CC1(C)c2cccc(C(=O)NO)c2CN1C(=O)c1cccc(C(F)(F)F)c1 [Compound 28-2]"
  TEST RESULT: "< 6.00"
- COMPOUND: "CC1(C)c2cccc(C(=O)NO)c2N[C@@H]1c1ccc(C(F)(F)F)cc1 [Compound 40-6]"
  TEST RESULT: "< 6.00"
- COMPOUND: "CC1(C)c2cccc(C(=O)NO)c2CN1C(=O)c1ccc(C(F)(F)F)cc1 [Compound 28-1]"
  TEST RESULT: "< 6.00"
- COMPOUND: "O=C(NO)c1cccc2c1CN(c1ccc3c(c1)NCCO3)C2 [Compound 9-2]"
  TEST RESULT: "< 6.00"

Enquiry: Fill in: pIC50 of CC1(C)c2cccc(C(=O)NO)c2CN1C(=O)Nc1cc(C(F)(F)F)ccn1 [Compound 30-5] is ___
Return: > 6.30

Enquiry: Same read-out for CC1(C)c2cccc(C(=O)NO)c2CN1c1nc2ncccc2o1 [Compound 18-2] ?
Return: > 6.30

Enquiry: Same read-out for Cl.O=C(NO)c1cccc2c1CN(c1ccc3ccccc3n1)C2 [Compound 7-2, hydrochloride] ?
Return: > 6.30

---

SYSTEM: HDAC7 (Homo sapiens (Human), UniProt Q8WUI4)
Sequence (Q8WUI4 whole entry): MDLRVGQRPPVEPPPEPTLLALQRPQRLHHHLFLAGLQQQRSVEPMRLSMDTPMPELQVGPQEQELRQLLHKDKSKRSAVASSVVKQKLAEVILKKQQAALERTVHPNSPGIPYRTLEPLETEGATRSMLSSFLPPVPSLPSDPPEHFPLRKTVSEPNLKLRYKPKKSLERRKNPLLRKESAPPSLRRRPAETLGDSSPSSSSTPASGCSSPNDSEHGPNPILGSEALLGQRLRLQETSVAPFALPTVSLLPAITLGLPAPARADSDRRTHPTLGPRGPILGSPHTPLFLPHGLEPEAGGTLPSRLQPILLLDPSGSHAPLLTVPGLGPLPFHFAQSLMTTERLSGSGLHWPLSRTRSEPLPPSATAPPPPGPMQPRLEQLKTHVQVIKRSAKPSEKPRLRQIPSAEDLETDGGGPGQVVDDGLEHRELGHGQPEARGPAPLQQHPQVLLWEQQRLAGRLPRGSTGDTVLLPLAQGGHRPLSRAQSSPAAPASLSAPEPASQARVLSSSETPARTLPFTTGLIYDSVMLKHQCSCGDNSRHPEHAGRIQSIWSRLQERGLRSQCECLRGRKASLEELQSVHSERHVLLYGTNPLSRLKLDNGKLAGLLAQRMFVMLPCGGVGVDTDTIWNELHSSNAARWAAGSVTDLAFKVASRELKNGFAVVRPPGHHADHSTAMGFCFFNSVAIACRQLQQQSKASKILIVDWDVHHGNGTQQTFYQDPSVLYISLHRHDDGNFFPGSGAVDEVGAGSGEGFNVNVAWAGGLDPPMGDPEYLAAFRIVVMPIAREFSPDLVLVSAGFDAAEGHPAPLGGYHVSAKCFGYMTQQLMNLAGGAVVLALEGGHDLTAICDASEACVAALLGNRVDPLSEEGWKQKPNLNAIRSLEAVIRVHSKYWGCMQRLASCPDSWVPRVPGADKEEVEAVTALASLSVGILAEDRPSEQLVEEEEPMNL
PROCEDURE DETAILS: HDAC7 electrophoretic mobility shift assay
Assay type: biochemical
ASSAY CONDITIONS: Table 7, read-out: HDAC IC50, HDAC 7
PROPERTY MEASURED: IC50

- COMPOUND STRUCTURE STRING: "CC1(C)c2cccc(C(=O)NO)c2CN1c1cnc(C(F)(F)F)cn1"
  IC50: "> 1000 nM"

Enquiry: Fill in: IC50 of CC1(C)c2cccc(C(N)=O)c2CN1c1cnc(C(F)(F)F)cn1 is ___
Return: > 1000 nM

---

SYSTEM: HDAC11 (Homo sapiens (Human), UniProt Q96DB2)
Sequence (Q96DB2 whole entry): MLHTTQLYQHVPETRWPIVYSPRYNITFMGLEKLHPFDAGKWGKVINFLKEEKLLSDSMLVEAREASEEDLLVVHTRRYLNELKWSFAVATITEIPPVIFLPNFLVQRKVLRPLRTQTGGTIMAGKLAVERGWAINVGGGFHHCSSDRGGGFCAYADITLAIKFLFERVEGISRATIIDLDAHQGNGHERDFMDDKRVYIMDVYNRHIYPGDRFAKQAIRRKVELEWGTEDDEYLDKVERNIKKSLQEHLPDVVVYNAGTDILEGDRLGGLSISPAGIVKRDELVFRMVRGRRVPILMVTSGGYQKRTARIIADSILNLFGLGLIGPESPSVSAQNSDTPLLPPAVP
PROCEDURE DETAILS: Lipophilic efficiency (pIC50 HDAC11 - clogD7.4)
ASSAY CONDITIONS: pIC50 HDAC11 - clogD7.4, Table 5

- COMPOUND STRUCTURE STRING: "O=C(NO)c1cccc2c1CN(c1nc3ccccc3s1)C2"
  LipE: "+ (indicates LipE≤5.5)"
- COMPOUND STRUCTURE STRING: "Cl.O=C(NO)c1cccc2c1CN(c1ccc3ccccc3n1)C2"
  LipE: "+ (indicates LipE≤5.5)"

---

SYSTEM: HDAC1 (Homo sapiens (Human), UniProt Q13547)
Sequence (Q13547 whole entry): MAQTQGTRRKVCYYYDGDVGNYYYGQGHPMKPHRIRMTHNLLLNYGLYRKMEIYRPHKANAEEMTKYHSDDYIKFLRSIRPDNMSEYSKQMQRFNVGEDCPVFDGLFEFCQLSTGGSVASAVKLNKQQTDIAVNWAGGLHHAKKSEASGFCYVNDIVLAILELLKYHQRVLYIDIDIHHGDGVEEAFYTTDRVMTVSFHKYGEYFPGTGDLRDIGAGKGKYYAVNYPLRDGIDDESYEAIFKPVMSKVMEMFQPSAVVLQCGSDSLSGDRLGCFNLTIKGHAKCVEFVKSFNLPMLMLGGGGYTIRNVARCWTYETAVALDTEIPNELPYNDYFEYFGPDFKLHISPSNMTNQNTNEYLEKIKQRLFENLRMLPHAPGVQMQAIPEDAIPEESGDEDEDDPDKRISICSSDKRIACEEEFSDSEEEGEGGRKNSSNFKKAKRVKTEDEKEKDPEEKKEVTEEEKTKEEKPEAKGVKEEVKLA
PROPERTY MEASURED: IC50

Enquiry: Quick check: IC50 on HDAC1 (Homo sapiens (Human), UniProt Q13547), item CC1(C)c2cccc(C(N)=O)c2CN1c1cnc(C(F)(F)F)cn1 ?
Return: > 1000 nM
